B1: TPR 5TU (parent)
chain: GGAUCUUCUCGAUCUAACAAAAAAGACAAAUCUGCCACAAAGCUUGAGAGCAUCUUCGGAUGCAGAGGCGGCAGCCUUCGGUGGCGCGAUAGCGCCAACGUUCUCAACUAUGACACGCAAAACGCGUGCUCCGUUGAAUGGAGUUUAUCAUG

# Variants of: B1
# Experiment: polymerase ribozyme fitness, log enrichment relative to wild type (log ratio); higher = more active; in vitro selection for triplet polymerase activity
This sample holds only a part of the variants without activity.

- Mutation annotation: "C14G A26U C27G C35A A52C A91G A107G G126U U130A"
  Rel: "≤"
  polymerase ribozyme fitness (log ratio): -4.2
- Mutation annotation: "G81U C93U G94U A98G C131A A137U"
  Rel: "≤"
  polymerase ribozyme fitness (log ratio): -4.2
- Mutation annotation: "A29U C36U"
  Rel: "≤"
  polymerase ribozyme fitness (log ratio): -4.2
- Mutation annotation: "A12G A19U A41U G50C C85U G133A U148C"
  Rel: "≤"
  polymerase ribozyme fitness (log ratio): -4.2
- Mutation annotation: "G86U G100U"
  Rel: "≤"
  polymerase ribozyme fitness (log ratio): -4.2
- Mutation annotation: "C10U C51G U53A U90G"
  Rel: "≤"
  polymerase ribozyme fitness (log ratio): -4.2
- Mutation annotation: "C10G G11U C32A C51U C75U C93U C95A"
  Rel: "="
  polymerase ribozyme fitness (log ratio): -4.16
- Mutation annotation: "A3G G50C C76A A115U C131G"
  Rel: "≤"
  polymerase ribozyme fitness (log ratio): -4.2
- Mutation annotation: "C5G U56A G94C A120G"
  Rel: "="
  polymerase ribozyme fitness (log ratio): -1.95
- Mutation annotation: "C118G A122C G141C"
  Rel: "="
  polymerase ribozyme fitness (log ratio): -2.43
- Mutation annotation: "A20G C32G G86U C87A U109A"
  Rel: "≤"
  polymerase ribozyme fitness (log ratio): -4.2
- Mutation annotation: "U77G G84U"
  Rel: "≤"
  polymerase ribozyme fitness (log ratio): -4.2
- Mutation annotation: "A20U A49G C85U A110G U148A"
  Rel: "≤"
  polymerase ribozyme fitness (log ratio): -4.2
- Mutation annotation: "A40G G48U G58U C76A"
  Rel: "≤"
  polymerase ribozyme fitness (log ratio): -4.2
- Mutation annotation: "U53A A107U"
  Rel: "="
  polymerase ribozyme fitness (log ratio): -2.93
- Mutation annotation: "G11C G50U G84U A97G"
  Rel: "="
  polymerase ribozyme fitness (log ratio): -3.09
- Mutation annotation: "U45A C51A G84A"
  Rel: "≤"
  polymerase ribozyme fitness (log ratio): -4.2
- Mutation annotation: "U111C"
  Rel: "="
  polymerase ribozyme fitness (log ratio): -1.77
- Mutation annotation: "U78A C93A G94U"
  Rel: "="
  polymerase ribozyme fitness (log ratio): -4.16
- Mutation annotation: "C54G A91G"
  Rel: "="
  polymerase ribozyme fitness (log ratio): -4.01
- Mutation annotation: "G11A G59A"
  Rel: "="
  polymerase ribozyme fitness (log ratio): -1.71
- Mutation annotation: "G48C C54U G58C C87U C123U"
  Rel: "="
  polymerase ribozyme fitness (log ratio): -1.05
